These measurements were taken from patent US20110135573A1.

# Study system: T1, human MMP-2 (Biomol #SE-237) (human, UniProt P08253 110-452, limits assumed)
# T1 construct: also called hMMP-2
# T1 sequence (P08253 110-452 limits assumed): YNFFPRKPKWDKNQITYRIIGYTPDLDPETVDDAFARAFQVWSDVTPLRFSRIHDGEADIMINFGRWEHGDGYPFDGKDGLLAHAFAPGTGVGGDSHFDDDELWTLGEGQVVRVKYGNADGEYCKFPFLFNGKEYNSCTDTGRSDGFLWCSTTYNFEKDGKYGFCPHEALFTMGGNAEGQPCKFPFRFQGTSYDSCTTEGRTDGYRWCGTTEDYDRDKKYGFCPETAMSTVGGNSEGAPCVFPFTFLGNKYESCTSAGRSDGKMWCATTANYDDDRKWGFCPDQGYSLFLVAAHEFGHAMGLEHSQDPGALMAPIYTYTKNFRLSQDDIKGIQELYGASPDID
# Assay details: Ki,app, enzyme inhibition assay (fluorogenic peptide substrate), medium-scale sFab
Quantity name: pKi
Note on pKi: it is the negative log10 of concentration, concentration in mol/L.

For orientation, consider the following solved cases.
| Binder | pKi |
| --- | --- |
| M0307-F04 (Fab, V domains shown, sFab; variable domains only; also called M307-F04) VH: EVQLLESGGGLVQPGGSLRLSCAASGFTFSLYDMWWVRQAPGKGLEWVSVIYSSGGYTGYADSVKGRFTISRDNSKNTLYLQMNSLRAEDTAVYYCAKDRAYGDYVGWNGFDYWGQGTLVTVSS VL: DIQMTQSPATLSLSPGERATLSCRASQSISSFLAWYQQKPGQAPRLLIYDASYRATGIPARFSGSGSGTDFTLTISSLEPEDYAVYYCQQRGNWPITFGQGTRLEIK | 9.40 |
| M0275-D03 (Fab, V domains shown, sFab; variable domains only; also called M275-D03) VH: EVQLLESGGGLVQPGGSLRLSCAASGFTFSQYDMWWVRQAPGKGLEWVSVIYPSGTTFYADSVKGRFTISRDNSKNTLYLQMNSLRAEDTAVYYCAKDRAYGDYVGWNGFDYWGQGTLVTVSS VL: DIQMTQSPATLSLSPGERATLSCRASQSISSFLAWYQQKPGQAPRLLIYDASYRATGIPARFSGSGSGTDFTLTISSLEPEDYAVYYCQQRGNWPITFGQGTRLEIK | 9.30 |

Identify measured pKi corresponding to M0275-E12 (Fab, V domains shown, sFab; variable domains only; also called M275-E12) VH: EVQLLESGGGLVQPGGSLRLSCAASGFTFSHYDMWWVRQAPGKGLEWVSVIYSSGGFTGYADSVKGRFTISRDNSKNTLYLQMNSLRAEDTAVYYCAKDRAYGDYVGWNGFDYWGQGTLVTVSS VL: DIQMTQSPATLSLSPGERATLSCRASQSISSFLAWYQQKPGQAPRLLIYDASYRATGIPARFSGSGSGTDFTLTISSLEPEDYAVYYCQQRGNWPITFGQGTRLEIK
9.30

Tell me pKi reported for M0276-F11 (Fab, V domains shown, sFab; variable domains only; also called M276-F11) VH: EVQLLESGGGLVQPGGSLRLSCAASGFTFSWYDMWWVRQAPGKGLEWVSVIYSSGGPTFYADSVKGRFTISRDNSKNTLYLQMNSLRAEDTAVYYCAKDRAYGDYVGWNGFDYWGQGTLVTVSS VL: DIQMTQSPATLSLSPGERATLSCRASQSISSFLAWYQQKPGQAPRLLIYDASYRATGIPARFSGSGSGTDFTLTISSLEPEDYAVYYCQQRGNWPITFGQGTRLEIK
9.40

Read the entry M0273-G07 (Fab, V domains shown, sFab; variable domains only; also called M273-G07) VH: EVQLLESGGGLVQPGGSLRLSCAASGFTFSHYDMWWVRQAPGKGLEWVSVIYPSGGPTYYADSVKGRFTISRDNSKNTLYLQMNSLRAEDTAVYYCAKDRAYGDYVGWNGFDYWGQGTLVTVSS VL: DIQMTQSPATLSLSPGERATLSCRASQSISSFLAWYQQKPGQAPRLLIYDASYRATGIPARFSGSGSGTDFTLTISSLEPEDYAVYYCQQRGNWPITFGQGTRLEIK and write its reported pKi.
9.00
